experimental readout: melting point (°C)
Give the value in °C but do not write °C after it.

Reference set (8 entries):
compound=COC(=O)C1(S(=O)(=O)c2ccc(C)cc2)CCCCC1 experimental_readout="melting point" unit_name=°C obs_value=146
compound=N#Cc1ccc(CCl)cc1 experimental_readout="melting point" unit_name=°C obs_value=79
compound=Nc1cc(F)ccc1Br experimental_readout="melting point" unit_name=°C obs_value=44
compound="O=C(C1=NOC2C(=O)N(c3cccc([N+](=O)[O-])c3)C(=O)C12)c1ccccc1 (stereo not drawn)" experimental_readout="melting point" unit_name=°C obs_value=173
compound="COc1cc(N)c(Cl)cc1C(=O)NC1CCN(CCCOc2ccc(F)cc2)CC1OC (stereo not drawn)" experimental_readout="melting point" unit_name=°C obs_value=110
compound=Clc1nc(Cl)nc(Oc2cc(Oc3nc(Cl)nc(Cl)n3)cc(Oc3nc(Cl)nc(Cl)n3)c2)n1 experimental_readout="melting point" unit_name=°C obs_value=240
compound=COc1cc(/C=C/C(=O)c2ccc3ccccc3c2)cc(OC)c1OC experimental_readout="melting point" unit_name=°C obs_value=119
compound=c1ccc2c(c1)-c1cc3ccccc3c3cc4ccccc4c-2c13 experimental_readout="melting point" unit_name=°C obs_value=232

Below: the item to evaluate.
Q: Which melting point is listed for `O=C1OC(=O)C2=C1CCCC2` ?
Ans: 74

----------
experimental readout: melting point (°C)
Give the value in °C but do not write °C after it.

Reference set (8 entries):
compound=O=C(OCCOC(=O)c1ccccc1)c1ccccc1 experimental_readout="melting point" obs_value=73.5
compound=SCCCCS experimental_readout="melting point" obs_value=-53.9
compound=Cn1nnc2cc(C=O)ccc21 experimental_readout="melting point" obs_value=162
compound="C=CCC1(C(C)C)C(=O)NC(=O)N(C)C1=O (stereo not given)" experimental_readout="melting point" obs_value=56.5
compound="CC(CN1c2ccccc2Sc2ccccc21)N(C)C (stereo not given)" experimental_readout="melting point" obs_value=60
compound="CC1CCC(C(C)C)C(OC(=O)c2ccc(C(=O)OC3CC(C)CCC3C(C)C)cc2)C1 (stereo not given)" experimental_readout="melting point" obs_value=75
compound=NC(=O)CN1CCCC1=O experimental_readout="melting point" obs_value=152
compound="CC1(C)C(C=C(Cl)C(F)(F)F)C1C(=O)OC(C#N)c1cccc(Oc2ccccc2)c1 (stereo not given)" experimental_readout="melting point" obs_value=55.6

Q: Which melting point is listed for `O=C(C=Cc1ccc(OC(=O)c2ccco2)cc1)c1ccccc1` ?
Ans: 115

Q: // query: `O=C1NC(=S)NC(=O)C1=Cc1ccc(Br)o1`
Ans: 215

Q: // query: `O=S1(=O)OC2(c3ccccc31)c1ccc(O)c(O)c1Oc1c2ccc(O)c1O`
Ans: 300

Q: // query: `CC(C)(C)C=O`
Ans: 6

Q: // query: `CCC(=O)c1cccc([N+](=O)[O-])c1`
Ans: 101

Q: // query: `O=S(=O)(O)c1cccnc1`
Ans: 300

Q: // query: `OCCCc1ccccn1`
Ans: 34

----------
We begin with a simple list: items and their reported melting point.

compound=CCOC(=O)C(C#N)=Cc1ccc(Cl)cc1 experimental_readout="melting point" obs_value="137 to 138 °C"
compound="COC(=O)C12C=CC(CC1)C1C(=O)OC(=O)C12 (centres undefined)" experimental_readout="melting point" obs_value="116 to 118 °C"
compound=NC(=S)c1ccccc1Br experimental_readout="melting point" obs_value="83 to 85 °C"

Below: the item to evaluate.
Q: Which melting point is listed for `O=C1c2ccccc2C(=O)N1O` ?
Ans: 233 to 235 °C
